The reported numbers originate from patent US20060069132A1.

Tested on: morningglory
measurement description: Test C pre-/postemergence herbicide test
Assay type: in vivo, Ipomoea coccinea
Parameters: key: 0 = no effect, 100 = complete control
condition description: postemergence; 62 g ai/ha; scale 0 to 100
Field: Plant response rating, Morningglory. Provide a value for each of the compounds that follow.

**Q:** Bench note: what Plant response rating, Morningglory did `CCn1nc(C(C)(C)C)cc1C(=O)Nc1cccc(OC(F)(F)C(F)F)c1` show?
**A:** 0

**Q:** Bench note: what Plant response rating, Morningglory did `CCn1nc(C(C)(C)C)cc1C(=O)Nc1cccc(C(C)=NO)c1` show?
**A:** 30

**Q:** Bench note: what Plant response rating, Morningglory did `CCn1nc(C(C)(C)C)cc1C(=O)Nc1cccc(OC(F)(F)F)c1` show?
**A:** 80

**Q:** Bench note: what Plant response rating, Morningglory did `CCn1nc(C(C)(C)C)cc1C(=O)Nc1cccc(C(=O)NC2CC2)n1` show?
**A:** 0
